- tested target: VEGFR2 (Homo sapiens, UniProt P35968)
- Sequence (P35968 20-1356): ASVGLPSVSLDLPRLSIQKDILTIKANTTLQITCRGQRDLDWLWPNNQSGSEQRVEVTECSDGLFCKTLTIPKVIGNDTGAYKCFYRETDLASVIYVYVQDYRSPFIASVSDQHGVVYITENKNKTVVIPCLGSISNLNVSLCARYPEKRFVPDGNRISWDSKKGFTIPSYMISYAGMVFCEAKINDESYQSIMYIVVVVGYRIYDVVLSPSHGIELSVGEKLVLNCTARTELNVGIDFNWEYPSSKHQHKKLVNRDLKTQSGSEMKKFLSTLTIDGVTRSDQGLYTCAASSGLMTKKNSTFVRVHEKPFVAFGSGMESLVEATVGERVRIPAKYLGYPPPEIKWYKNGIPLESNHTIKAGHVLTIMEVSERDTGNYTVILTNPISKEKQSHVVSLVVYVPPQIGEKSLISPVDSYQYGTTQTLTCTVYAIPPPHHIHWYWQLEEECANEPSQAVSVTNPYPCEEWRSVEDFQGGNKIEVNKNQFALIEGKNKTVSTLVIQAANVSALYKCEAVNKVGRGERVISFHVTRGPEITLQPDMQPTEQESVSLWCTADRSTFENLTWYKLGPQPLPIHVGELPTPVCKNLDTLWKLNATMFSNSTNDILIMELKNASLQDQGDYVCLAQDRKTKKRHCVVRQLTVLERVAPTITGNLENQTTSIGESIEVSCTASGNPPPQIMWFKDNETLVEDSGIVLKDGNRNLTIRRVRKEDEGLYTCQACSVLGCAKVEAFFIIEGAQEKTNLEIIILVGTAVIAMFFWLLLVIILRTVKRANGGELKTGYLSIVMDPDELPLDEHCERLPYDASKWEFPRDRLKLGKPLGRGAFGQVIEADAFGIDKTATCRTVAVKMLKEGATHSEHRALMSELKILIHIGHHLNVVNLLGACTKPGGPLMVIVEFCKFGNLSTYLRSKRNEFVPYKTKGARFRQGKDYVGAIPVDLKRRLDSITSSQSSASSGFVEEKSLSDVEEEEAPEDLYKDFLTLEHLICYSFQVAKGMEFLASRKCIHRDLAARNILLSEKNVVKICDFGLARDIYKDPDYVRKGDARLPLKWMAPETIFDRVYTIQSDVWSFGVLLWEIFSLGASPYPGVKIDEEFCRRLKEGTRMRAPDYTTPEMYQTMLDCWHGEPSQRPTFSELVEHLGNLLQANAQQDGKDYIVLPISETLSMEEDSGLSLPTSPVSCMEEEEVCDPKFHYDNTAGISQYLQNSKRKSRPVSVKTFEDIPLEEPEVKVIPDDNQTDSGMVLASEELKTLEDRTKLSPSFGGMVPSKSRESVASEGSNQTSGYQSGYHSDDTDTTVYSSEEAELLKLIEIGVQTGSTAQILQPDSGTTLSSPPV
- assay: VEGFR2 kinase inhibition assay
- Format: biochemical
- run conditions: VEGFR2 IC50 [nM] ± SD, five concentrations, three replicates
measurement kind: IC50 (nM)
Enter your answer as a number in nM; do not include the unit.

IC50 for COc1ccc(/C=N\NC(=O)CNC(=O)CCn2nc(Cc3ccccc3)c3ccccc3c2=O)cc1 [Compound 13c] is 19.8
